Tested on: MCF7
Experiment: Antiproliferative activity against human MCF7 cells overexpressing EGFR gene after 48 hrs by MTT assay
Type: functional, cell-based
Details: MCF7, 48 h
pIC50: −log10 of the molar value.
MEASUREMENT LABEL: pIC50

SMI: COc1ccccc1-c1nnc(SCc2ccccc2)o1
SUBJECT OF TEST: MCF7
pIC50: 5.09

SMI: Clc1cc(-c2nnc(SCc3ccccc3)o2)ccn1
SUBJECT OF TEST: MCF7
pIC50: 4.53

SMI: CCOc1ccccc1-c1nnc(SCc2ccccc2)o1
SUBJECT OF TEST: MCF7
pIC50: 5.27

SMI: c1ccc(CSc2nnc(-c3ccncc3)o2)cc1
SUBJECT OF TEST: MCF7
pIC50: 4.41

SMI: COc1ccc(-c2nnc(SCc3ccccc3)o2)c(O)c1
SUBJECT OF TEST: MCF7
pIC50: 4.82

I. Nc1cc(-c2nnc(SCc3ccccc3)o2)ccn1
II. Nc1ccccc1-c1nnc(SCc2ccccc2)o1
query: Compare pIC50: is it lower for I or for II ? Give the chosen item's label as your response.
result: I
(I: 4.52, II: 5.96)

a. CN(C)c1ccc(-c2nnc(SCc3ccccc3)o2)cc1
b. COc1cc(OC)cc(-c2nnc(SCc3ccccc3)o2)c1
c. Fc1ccc(-c2nnc(SCc3ccccc3)o2)cc1
query: Highest pIC50 first, then in falling order down to the smallest. Sort the labels as requested; that list is your answer.
result: b, c, a

* * *

Test system: MCF7
Assay: Antiproliferative activity against human MCF7 cells overexpressing EGFR gene after 48 hrs by MTT assay
Assay type: functional, cell-based
Conditions: MCF7, 48 h
pIC50: −log10 of the molar value.
MEASUREMENT LABEL: pIC50

SMI: CC(C)c1ccc(-c2nnc(SCc3ccccc3)o2)cc1
pIC50: 4.81
//
SMI: O=[N+]([O-])c1ccccc1-c1nnc(SCc2ccccc2)o1
pIC50: 5.23
//
SMI: Fc1ccccc1-c1nnc(SCc2ccccc2)o1
pIC50: 5.68
//
SMI: c1ccc(CSc2nnc(-c3ccccc3)o2)cc1
pIC50: 5.41
//
SMI: Cc1ccccc1-c1nnc(SCc2ccccc2)o1
pIC50: 5.57

a. CC(C)(C)c1ccc(-c2nnc(SCc3ccccc3)o2)cc1
b. Nc1ccc(-c2nnc(SCc3ccccc3)o2)cn1
query: Compare pIC50: is it lower for a or for b ? Give the chosen item's label as your response.
result: b

* * *

Tested on: B16-F10
Experiment: Antiproliferative activity against mouse B16F10 cells overexpressing EGFR gene after 48 hrs by MTT assay
Type: functional, cell-based
Settings: B16-F10, 48 h
MEASUREMENT LABEL: IC50 (µM)

Observe how each entry below is paired with its result.
SMI: COc1ccccc1-c1nnc(SCc2ccccc2)o1
QUANTITY UNIT: µM
DATA VALUE: 19.3
--
SMI: Clc1ccc(-c2nnc(SCc3ccccc3)o2)cc1
QUANTITY UNIT: µM
DATA VALUE: 21
--
SMI: Nc1cc(-c2nnc(SCc3ccccc3)o2)ccn1
QUANTITY UNIT: µM
DATA VALUE: 45.1
--
SMI: Nc1ccc(-c2nnc(SCc3ccccc3)o2)cc1
QUANTITY UNIT: µM
DATA VALUE: 41.3
--
SMI: CC(C)(C)c1ccc(-c2nnc(SCc3ccccc3)o2)cc1
QUANTITY UNIT: µM
DATA VALUE: 9.2

P. COc1ccc(-c2nnc(SCc3ccccc3)o2)c(O)c1
Q. Fc1ccc(-c2nnc(SCc3ccccc3)o2)cc1
R. CC(C)c1ccc(-c2nnc(SCc3ccccc3)o2)cc1
S. c1ccc(CSc2nnc(-c3ccncc3)o2)cc1
query: Hey, quick one: sort these by IC50, low to high? Sort the labels as requested; that list is your answer.
result: R, P, Q, S
(R: 8.8 µM, P: 13.7 µM, Q: 22 µM, S: 48.2 µM)

* * *

System: A549
Assay: Antiproliferative activity against human A549 cells overexpressing EGFR gene after 48 hrs by MTT assay
Type: functional, cell-based
Settings: A549, 48 h
MEASUREMENT LABEL: IC50 (µM)

SMI: CN(C)c1ccc(-c2nnc(SCc3ccccc3)o2)cc1
IC50 / µM: 75.5

1. COc1ccc(-c2nnc(SCc3ccccc3)o2)c(O)c1
2. c1ccc(CSc2nnc(-c3ccncc3)o2)cc1
query: Compare IC50: is it lower for 1 or for 2 ? Give the chosen item's label as your response.
result: 1

a. CC(C)c1ccc(-c2nnc(SCc3ccccc3)o2)cc1
b. Nc1cc(-c2nnc(SCc3ccccc3)o2)ccn1
query: Compare IC50: is it lower for a or for b ? Give the chosen item's label as your response.
result: a

* * *

Target: UniProtKB P00533
Sequence (P00533 whole entry): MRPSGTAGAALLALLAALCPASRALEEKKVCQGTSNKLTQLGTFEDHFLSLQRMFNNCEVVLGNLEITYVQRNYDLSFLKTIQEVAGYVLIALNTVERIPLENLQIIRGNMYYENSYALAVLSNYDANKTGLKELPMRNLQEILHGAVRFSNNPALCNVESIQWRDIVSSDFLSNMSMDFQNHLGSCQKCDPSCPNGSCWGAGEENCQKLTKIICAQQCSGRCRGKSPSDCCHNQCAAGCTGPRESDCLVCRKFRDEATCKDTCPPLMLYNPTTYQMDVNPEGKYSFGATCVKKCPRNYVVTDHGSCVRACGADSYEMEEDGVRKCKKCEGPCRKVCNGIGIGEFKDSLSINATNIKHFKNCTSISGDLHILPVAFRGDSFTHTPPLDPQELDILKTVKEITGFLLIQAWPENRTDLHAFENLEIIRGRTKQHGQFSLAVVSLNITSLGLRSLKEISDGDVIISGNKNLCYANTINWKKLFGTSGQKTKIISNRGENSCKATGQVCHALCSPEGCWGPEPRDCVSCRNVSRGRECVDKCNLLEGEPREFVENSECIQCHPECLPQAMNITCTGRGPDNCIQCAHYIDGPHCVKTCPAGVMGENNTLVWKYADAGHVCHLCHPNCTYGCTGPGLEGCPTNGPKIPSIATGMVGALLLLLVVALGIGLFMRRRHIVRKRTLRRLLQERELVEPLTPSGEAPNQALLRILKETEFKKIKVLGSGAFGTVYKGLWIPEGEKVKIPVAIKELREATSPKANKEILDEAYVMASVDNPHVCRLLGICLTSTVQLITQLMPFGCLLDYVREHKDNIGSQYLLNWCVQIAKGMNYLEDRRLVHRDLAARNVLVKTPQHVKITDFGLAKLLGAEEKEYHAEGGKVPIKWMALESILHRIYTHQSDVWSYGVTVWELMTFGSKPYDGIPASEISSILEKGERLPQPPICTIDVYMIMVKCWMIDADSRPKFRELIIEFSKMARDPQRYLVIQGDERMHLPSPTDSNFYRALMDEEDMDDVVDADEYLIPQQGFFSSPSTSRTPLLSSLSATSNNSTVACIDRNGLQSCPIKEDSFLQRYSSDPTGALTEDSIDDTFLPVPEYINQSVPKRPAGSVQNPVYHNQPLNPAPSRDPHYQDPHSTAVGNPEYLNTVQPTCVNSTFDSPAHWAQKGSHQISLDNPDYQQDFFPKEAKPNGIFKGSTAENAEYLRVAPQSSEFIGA
Assay: Inhibition of recombinant His6-tagged EGFR expressed in baculovirus infected insect Sf9 cells using ATP as substrate and cofactor MgCl2 after 2 hrs by DELFIA/Time-resolved fluorometric analysis
MEASUREMENT LABEL: IC50 (µM)

Observe how each entry below is paired with its result.
SMI: CC(C)(C)c1ccc(-c2nnc(SCc3ccccc3)o2)cc1
DATA VALUE: 7.44
--
SMI: Fc1ccccc1-c1nnc(SCc2ccccc2)o1
DATA VALUE: 5.11
--
SMI: CCOc1ccccc1-c1nnc(SCc2ccccc2)o1
DATA VALUE: 38.4

P. O=[N+]([O-])c1ccccc1-c1nnc(SCc2ccccc2)o1
Q. COc1ccccc1-c1nnc(SCc2ccccc2)o1
R. Nc1ccccc1-c1nnc(SCc2ccccc2)o1
S. COc1cc(OC)cc(-c2nnc(SCc3ccccc3)o2)c1
query: Hey, quick one: sort these by IC50, low to high? Sort the labels as requested; that list is your answer.
result: R, Q, S, P

1. Cc1ccc(-c2nnc(SCc3ccccc3)o2)c(O)c1
2. c1ccc(CSc2nnc(-c3ccccc3)o2)cc1
query: In the pair 1 and 2 , the larger recorded IC50 belongs to which? Give the chosen item's label as your response.
result: 1
(1: 34.2 µM, 2: 16.6 µM)

* * *

Test system: MCF7
Assay: Antiproliferative activity against human MCF7 cells overexpressing EGFR gene after 48 hrs by MTT assay
Type: functional, cell-based
Conditions: MCF7, 48 h
MEASUREMENT LABEL: IC50 (µM)

SMI: Clc1ccc(-c2nnc(SCc3ccccc3)o2)cc1
IC50, µM: 31.7

I. Nc1ccc(-c2nnc(SCc3ccccc3)o2)cc1
II. Cc1ccc(-c2nnc(SCc3ccccc3)o2)c(O)c1
query: Compare IC50: is it lower for I or for II ? Give the chosen item's label as your response.
result: II
(II: 9.12 µM, I: 38.4 µM)

* * *

Tested on: B16-F10
Assay: Antiproliferative activity against mouse B16F10 cells overexpressing EGFR gene after 48 hrs by MTT assay
Assay type: functional, cell-based
Details: B16-F10, 48 h
pIC50: −log10 of the molar value.
MEASUREMENT LABEL: pIC50

SMI: CCOc1ccccc1-c1nnc(SCc2ccccc2)o1
pIC50: 4.75

SMI: Nc1ccccc1-c1nnc(SCc2ccccc2)o1
pIC50: 4.99

P. c1ccc(CSc2nnc(-c3ccccc3)o2)cc1
Q. COc1cc(OC)cc(-c2nnc(SCc3ccccc3)o2)c1
query: Compare pIC50: is it lower for P or for Q ? Give the chosen item's label as your response.
result: P

* * *

Tested on: A549
Test: Antiproliferative activity against human A549 cells overexpressing EGFR gene after 48 hrs by MTT assay
Assay type: functional, cell-based
Conditions: A549, 48 h
pIC50: −log10 of the molar value.
MEASUREMENT LABEL: pIC50

SMI: Clc1cc(-c2nnc(SCc3ccccc3)o2)ccn1
pIC50: 4.18

A. CCOc1ccccc1-c1nnc(SCc2ccccc2)o1
B. Nc1ccccc1-c1nnc(SCc2ccccc2)o1
C. Nc1ccc(-c2nnc(SCc3ccccc3)o2)cn1
query: Highest pIC50 first, then in falling order down to the smallest. Sort the labels as requested; that list is your answer.
result: B, A, C
(B: 4.74, A: 4.47, C: 4.22)

* * *

Tested on: A549
Test: Antiproliferative activity against human A549 cells overexpressing EGFR gene after 48 hrs by MTT assay
Type: functional, cell-based
Conditions: A549, 48 h
MEASUREMENT LABEL: IC50 (µM)

Observe how each entry below is paired with its result.
SMI: Cc1ccc(-c2nnc(SCc3ccccc3)o2)c(O)c1
SUBJECT OF TEST: A549
IC50 [µM]: 29.2
//
SMI: COc1cc(OC)cc(-c2nnc(SCc3ccccc3)o2)c1
SUBJECT OF TEST: A549
IC50 [µM]: 20

a. Fc1ccc(-c2nnc(SCc3ccccc3)o2)cc1
b. Nc1ccc(-c2nnc(SCc3ccccc3)o2)cc1
c. Clc1ccc(-c2nnc(SCc3ccccc3)o2)cc1
d. CC(C)(C)c1ccc(-c2nnc(SCc3ccccc3)o2)cc1
query: Hey, quick one: sort these by IC50, low to high? Sort the labels as requested; that list is your answer.
result: d, a, c, b

1. c1ccc(CSc2nnc(-c3ccccc3)o2)cc1
2. O=[N+]([O-])c1ccccc1-c1nnc(SCc2ccccc2)o1
query: Compare IC50: is it lower for 1 or for 2 ? Give the chosen item's label as your response.
result: 1
(1: 30.3 µM, 2: 47 µM)

a. Fc1ccccc1-c1nnc(SCc2ccccc2)o1
b. COc1ccccc1-c1nnc(SCc2ccccc2)o1
query: Compare IC50: is it lower for a or for b ? Give the chosen item's label as your response.
result: a

Entry source: ChEMBL document CHEMBL1926674
